The values you see were collected from ChEMBL document CHEMBL4689842.

test system: Fibroblast; test: Incucyte cell viability with human fibroblast; type: toxicity, cell-based; settings: 12 h, 10 µM, compound concentration 10 uM, replicate number 1, timepoint 12 hours; also: filed as whole numbers so only -1 and 0 and 1 occur
Reported property: Growth Rate
No unit in the answer, only the number.

1) CCC(=O)Nc1cccc(Oc2nc(Nc3ccc(N4CCN(C)CC4)cc3OC)ncc2Cl)c1 = 0
2) O=C(O)c1ccc(-c2coc3ncc(-c4ccccc4)cc23)cc1Cl = 0
3) OC1(c2ccc(Cl)cc2)CCN(Cc2c[nH]c3ccccc23)CC1 = 0
4) CN([C@@H]1CCc2c(CC(=O)O)c3cc(S(C)(=O)=O)ccc3n2C1)S(=O)(=O)c1ccc(F)cc1 [CRTH2-negative-control] = 1

API: the following record is the query input.
Q: Returns the measured Growth Rate for the input molecule. Input: CCOc1cc(N2CCC(O)CC2)ccc1Nc1ncc2c(n1)N(C)c1ccccc1C(=O)N2C
A: 1

---

Growth Rate overview
test system: U2OS; experiment: Incucyte cell viability with U2OS; assay type: toxicity, cell-based; conditions: human, 24 h, 10 µM, compound concentration 10 uM, replicate number 1, timepoint 24 hours; also: filed as whole numbers so only -1 and 0 and 1 occur
No unit in the answer, only the number.

Consider the following illustrative entries.
1) CCc1cc(C(C)=O)c(O)cc1OCCCCCC(C)(C)c1nn[nH]n1 = 1
2) CCn1cc(-c2cccc(C(F)(F)F)c2)c2sc(C(=N)NC3CCS(=O)(=O)CC3)cc2c1=O = 0
3) CCCCN1CCC(COC(=O)c2cc(Cl)c(N)c3c2OCCO3)CC1.Cl = 1
4) COc1ncc(-c2ccc3nccc(-c4ccnnc4)c3c2)cc1NS(=O)(=O)c1ccc(F)cc1F = 0
5) Cc1cc(F)c(C(=O)Nc2cccc(-c3nncn3C(C)C)n2)cc1-n1cnc(C2CC2)c1 = 1
6) CN1C(=O)c2sccc2N(C)c2nc(Nc3ccc(S(N)(=O)=O)cc3)ncc21 = 0

Q: What is its Growth Rate for U2OS? Entry: CN(C)C(=O)N[C@H]1CC[C@H](CCN2CCN(c3cccc(Cl)c3Cl)CC2)CC1.Cl [CARIPRAZINE HYDROCHLORIDE]
A: 1

Q: What is its Growth Rate for U2OS? Entry: COc1ccc(Oc2cc(NCCC(F)(F)F)c3ncc(-c4ccc(C(=O)NC5CC5)c(C)c4)n3n2)c(F)c1F
A: 0

---

tested on: HEK-293T; assay: Multiplex assay against HEK293T; type: toxicity, cell-based; details: human, 24 h, 1 µM, compound concentration 1 uM, replicate 2
Please note: label 1 applies when Population Fragmented Nuclei (%) is 6% or greater, and label 0 applies otherwise.

Below are worked cases with known answers.
1. O=C1NCN(c2ccccc2)C12CCN(CCCOc1ccc(F)cc1)CC2 [SPIRAMIDE] = label 1
2. CN(C)CC#Cc1ccc(OCCCc2sc(N3CCc4cccc(C(=O)Nc5nc6ccccc6s5)c4C3)nc2C(=O)O)c(F)c1 = label 0
3. C[C@@H](NCCCc1cccc(C(F)(F)F)c1)c1cccc2ccccc12.Cl [CINACALCET HYDROCHLORIDE] = label 1

Q: Would you say COc1cccc([C@@H](C)NCCCc2ccccc2Cl)c1.Cl [TECALCET HYDROCHLORIDE] shows Population Fragmented Nuclei (%) at minimum 6%?
A: label 0

Q: Would you say Cc1c(-c2ccc(O)cc2)n(Cc2ccc(OCCN3CCCCCC3)cc2)c2ccc(O)cc12 shows Population Fragmented Nuclei (%) at minimum 6%?
A: label 1

Q: Would you say C[C@@]1(C(=O)Nc2ccc(F)nc2)CCCN1c1nc(Nc2cc(C3CC3)n[nH]2)c2cccn2n1 shows Population Fragmented Nuclei (%) at minimum 6%?
A: label 0

Q: Would you say CC(C)(O)CNc1ncc(-c2ccnc(Nc3ccnc(Cl)c3)n2)c(CC2CC2)n1 shows Population Fragmented Nuclei (%) at minimum 6%?
A: label 1

Q: Would you say Cc1[nH]c(/C=C2\C(=O)Nc3ccc(S(=O)(=O)N(C)c4cccc(Cl)c4)cc32)c(C)c1C(=O)N1CCN(C)CC1 shows Population Fragmented Nuclei (%) at minimum 6%?
A: label 0

Q: Would you say Cl.N#Cc1ccc2[nH]cc(CCCCN3CCN(c4ccc5oc(C(N)=O)cc5c4)CC3)c2c1 [VILAZODONE HYDROCHLORIDE] shows Population Fragmented Nuclei (%) at minimum 6%?
A: label 0

Q: Would you say CN1CCN(c2ccc(OC(F)(F)F)c(Nc3ncc4c(n3)-c3c(c(C(N)=O)nn3CCO)CC4)c2)CC1 shows Population Fragmented Nuclei (%) at minimum 6%?
A: label 1

Q: Would you say Cc1nc(-c2ccc(-c3ccc(C(=O)N4CCc5cc6c(cc54)C4(CCN(C)CC4)CO6)cc3)c(C)c2)no1 shows Population Fragmented Nuclei (%) at minimum 6%?
A: label 0

Q: Would you say CC[C@H](C)C(=O)O[C@H]1C[C@@H](C)C=C2C=C[C@H](C)[C@H](CC[C@@H]3C[C@@H](O)CC(=O)O3)[C@H]21 shows Population Fragmented Nuclei (%) at minimum 6%?
A: label 0

Q: Would you say Cc1nc(Nc2n[nH]c3c2CN(C(=O)N[C@H](CN(C)C)c2ccccc2)C3(C)C)c2sccc2n1 shows Population Fragmented Nuclei (%) at minimum 6%?
A: label 1

Q: Would you say NC(=O)Nc1cc(-c2cccc(F)c2)sc1C(=O)N[C@H]1CCCNC1 shows Population Fragmented Nuclei (%) at minimum 6%?
A: label 1
